Target chain: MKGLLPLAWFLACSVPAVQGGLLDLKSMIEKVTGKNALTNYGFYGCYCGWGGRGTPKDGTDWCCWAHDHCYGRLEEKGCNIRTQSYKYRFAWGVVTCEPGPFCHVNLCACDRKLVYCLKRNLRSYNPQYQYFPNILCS
pIC50: −log10 of the molar value.
readout type: pIC50

>>> df
                                   compound  test_result
0  CC(C=CC(=O)C=CC(C)c1ccccc1)c1ccccc1 (stereo not drawn)         3.90
1  CC(C)(C)c1ccc(/C=C/C(=O)/C=C/c2ccc(C(C)(C)C)cc2)cc1         4.29
2  COc1cccc(/C=C/C(=O)/C=C/c2cccc(OC)c2OC)c1OC         4.98

====

Record: IC50 reported on Lipoxygenase (Glycine max, UniProt Q43440).
Sequence (Q43440 whole entry): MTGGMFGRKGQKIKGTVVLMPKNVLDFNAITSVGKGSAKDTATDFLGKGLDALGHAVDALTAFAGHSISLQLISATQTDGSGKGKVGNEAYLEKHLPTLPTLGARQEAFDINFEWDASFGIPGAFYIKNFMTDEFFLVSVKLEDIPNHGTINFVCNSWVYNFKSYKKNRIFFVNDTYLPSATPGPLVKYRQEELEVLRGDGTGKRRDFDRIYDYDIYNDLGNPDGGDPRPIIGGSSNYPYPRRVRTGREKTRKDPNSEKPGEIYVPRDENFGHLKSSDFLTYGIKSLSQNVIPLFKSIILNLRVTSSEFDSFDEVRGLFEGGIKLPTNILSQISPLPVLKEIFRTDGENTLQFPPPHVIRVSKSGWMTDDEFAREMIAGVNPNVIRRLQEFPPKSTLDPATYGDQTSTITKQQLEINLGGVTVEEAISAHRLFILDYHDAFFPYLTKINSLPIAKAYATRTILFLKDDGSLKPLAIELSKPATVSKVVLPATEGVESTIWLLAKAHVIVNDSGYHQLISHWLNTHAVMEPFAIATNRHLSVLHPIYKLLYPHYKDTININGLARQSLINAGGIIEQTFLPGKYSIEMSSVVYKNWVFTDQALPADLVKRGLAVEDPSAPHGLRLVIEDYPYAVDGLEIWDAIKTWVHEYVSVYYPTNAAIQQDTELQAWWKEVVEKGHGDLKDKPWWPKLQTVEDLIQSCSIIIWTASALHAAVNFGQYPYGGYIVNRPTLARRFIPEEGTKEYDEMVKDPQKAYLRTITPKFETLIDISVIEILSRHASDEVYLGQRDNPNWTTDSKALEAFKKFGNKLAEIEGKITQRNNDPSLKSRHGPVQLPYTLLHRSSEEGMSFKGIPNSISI
readout type: IC50 (µM)

                           molecular_string  readout_type  measurement_unit  test_result
0  COc1cccc(/C=C2\CC/C(=C\c3cccc(OC)c3OC)C2=O)c1OC          IC50                µM         63.8
1  COc1cc(C=CC(=O)CC(=O)C=Cc2ccc(O)c(OC)c2)ccc1O          IC50                µM         57.8
